These entries and their values trace back to ChEMBL document CHEMBL1629614.

Target: Methionine--tRNA ligase (Staphylococcus aureus subsp. aureus MW2, UniProt Q8NY00, A64P/G54A)
Test: Inhibition of Staphylococcus aureus MetRS G54A A64P mutant
MEASURED ENDPOINT: Ki (nM)
Field format: number, assumed nM, no unit text.

What does the record list as Ki for C=C(F)c1sc(CNCCCNc2cc(=O)c3ccccc3[nH]2)c(C)c1Br [BEDEROCIN] ? 1900

* * *

Target: Methionine--tRNA ligase (Staphylococcus aureus subsp. aureus MW2, UniProt Q8NY00, A247E/I57N)
Test: Inhibition of Staphylococcus aureus MetRS I57N A247E mutant
MEASURED ENDPOINT: Ki (nM)
Field format: number, assumed nM, no unit text.

What does the record list as Ki for C=C(F)c1sc(CNCCCNc2cc(=O)c3ccccc3[nH]2)c(C)c1Br ? 60

* * *

Target: Methionine--tRNA ligase (Staphylococcus aureus subsp. aureus MW2, UniProt Q8NY00, I57N/V242F)
Assay: Inhibition of Staphylococcus aureus MetRS I57N V242F mutant
MEASURED ENDPOINT: pKi
Please express pKi as -log10 of the molar concentration.

What does the record list as pKi for C=C(F)c1sc(CNCCCNc2cc(=O)c3ccccc3[nH]2)c(C)c1Br ? 7.82

* * *

Biological target: Methionine--tRNA ligase (Haemophilus influenzae (strain ATCC 51907 / DSM 11121 / KW20 / Rd))
Assay: Inhibition of Haemophilus influenzae MetRS
MEASURED ENDPOINT: pKi
Please express pKi as -log10 of the molar concentration.

What does the record list as pKi for C=C(F)c1sc(CNCCCNc2cc(=O)c3ccccc3[nH]2)c(C)c1Br ? 6.65

* * *

Assay: Inhibition of human mitochondrial MetRS
MEASURED ENDPOINT: pKi
Please express pKi as -log10 of the molar concentration.

What does the record list as pKi for C=C(F)c1sc(CNCCCNc2cc(=O)c3ccccc3[nH]2)c(C)c1Br [BEDEROCIN] ? 7.64

* * *

Molecular target: Methionine--tRNA ligase (Staphylococcus aureus subsp. aureus MW2, UniProt Q8NY00, I57N)
Assay: Inhibition of Staphylococcus aureus MetRS I57N mutant
MEASURED ENDPOINT: pKi
Please express pKi as -log10 of the molar concentration.

What does the record list as pKi for C=C(F)c1sc(CNCCCNc2cc(=O)c3ccccc3[nH]2)c(C)c1Br ? 10.10

* * *

Biological target: Methionine--tRNA ligase (Staphylococcus aureus subsp. aureus MW2, UniProt Q8NY00, G223C)
Assay: Inhibition of Staphylococcus aureus MetRS G223C mutant
MEASURED ENDPOINT: pKi
Please express pKi as -log10 of the molar concentration.

Could you share what pKi was measured for C=C(F)c1sc(CNCCCNc2cc(=O)c3ccccc3[nH]2)c(C)c1Br [BEDEROCIN] , tested on Methionine--tRNA ligase (Staphylococcus aureus subsp. aureus MW2, UniProt Q8NY00, G223C)? 9.29

* * *

Assay: Inhibition of human cytoplasmic MetRS
MEASURED ENDPOINT: Ki

What does the record list as Ki for C=C(F)c1sc(CNCCCNc2cc(=O)c3ccccc3[nH]2)c(C)c1Br ? > 20 µM

* * *

Biological target: Methionine--tRNA ligase (Staphylococcus aureus subsp. aureus MW2, UniProt Q8NY00, V108M)
Experiment: Inhibition of Staphylococcus aureus MetRS V108M mutant
MEASURED ENDPOINT: pKi
Please express pKi as -log10 of the molar concentration.

Could you share what pKi was measured for C=C(F)c1sc(CNCCCNc2cc(=O)c3ccccc3[nH]2)c(C)c1Br , tested on Methionine--tRNA ligase (Staphylococcus aureus subsp. aureus MW2, UniProt Q8NY00, V108M)? 9.96

* * *

Target: Methionine--tRNA ligase (Staphylococcus aureus subsp. aureus MW2, UniProt Q8NY00, G54S/I57N)
Assay: Inhibition of Staphylococcus aureus MetRS I57N G54S mutant
MEASURED ENDPOINT: Ki
Answer by giving the amount and then stating its unit.

What does the record list as Ki for C=C(F)c1sc(CNCCCNc2cc(=O)c3ccccc3[nH]2)c(C)c1Br [BEDEROCIN] ? 900 nM

* * *

Target: Methionine--tRNA ligase (Staphylococcus aureus subsp. aureus MW2, UniProt Q8NY00, A247E)
Experiment: Inhibition of Staphylococcus aureus MetRS A247E mutant
MEASURED ENDPOINT: Ki
Answer by giving the amount and then stating its unit.

What does the record list as Ki for C=C(F)c1sc(CNCCCNc2cc(=O)c3ccccc3[nH]2)c(C)c1Br [BEDEROCIN] ? 0.06 nM

* * *

Assay: Inhibition of Streptococcus pneumoniae MetRS1
MEASURED ENDPOINT: pKi
Please express pKi as -log10 of the molar concentration.

What does the record list as pKi for C=C(F)c1sc(CNCCCNc2cc(=O)c3ccccc3[nH]2)c(C)c1Br ? 10.26
